Molecular target: T1, CTLA4-Fc fusion protein (human, biotinylated where used as CTLA4-Fc-Biotin (Examples 5.1-5.3))
T1 construct: expressed in HEK293 cells; also called human CTLA4-Fc protein; CTLA4-Fc antigen protein
T1 sequence (chain, as listed by the source limits assumed): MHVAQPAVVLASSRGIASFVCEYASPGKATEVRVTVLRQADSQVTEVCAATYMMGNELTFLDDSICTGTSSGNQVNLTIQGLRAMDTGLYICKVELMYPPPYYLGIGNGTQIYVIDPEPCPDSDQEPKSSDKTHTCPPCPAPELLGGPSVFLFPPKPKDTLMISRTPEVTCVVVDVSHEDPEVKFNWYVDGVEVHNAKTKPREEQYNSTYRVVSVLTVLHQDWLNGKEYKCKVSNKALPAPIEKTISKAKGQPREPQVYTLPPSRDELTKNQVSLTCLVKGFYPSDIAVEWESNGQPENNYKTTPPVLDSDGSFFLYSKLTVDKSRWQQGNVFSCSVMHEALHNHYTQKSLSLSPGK
Experiment: ELISA OD ratio, value equals OD(CTLA4)/OD(blank)
PARAMETER_MEASURED: ODa/ODb

| BINDER | ASSAY_VALUE |
| --- | --- |
| CTLA4 heavy chain single domain antibody No. J29 (VHH, Camel VHH expressed in E. coli (PET32b), nickel-purified) VHH: QVQLQESGGGLVQPGGSLRLSCAASGFTISSYTMTWLHQAPGKGLEWVSTINSGGSTAYADSVKGRFAISRDNAKNTLYLQLNSLKIEDTGMYYCQGGLTQRGQGTQVTVSS | 51.4 |
| CTLA4 heavy chain single domain antibody No. J37 (VHH, Camel VHH expressed in E. coli (PET32b), nickel-purified) VHH: QVQLQESGGGSVQAGGTLRLSCAVSGVTYSPHCMGWFRQAPGKEREGVAAIYNGGGSTAYADSVKGRFTISQDNAKNTVYLQMNSLKPEDTAMYYCGAGSPRFCASATMTGGHHLFGYWGQGTQVTVSS | 42.9 |
| CTLA4 heavy chain single domain antibody No. 145 (VHH, Camel VHH expressed in E. coli (PET32b), nickel-purified) VHH: QVQLQESGGGSVQAGGSLRLSCAASGYTYSSYSMGWFRQAAGKEREGVAAIDSDGSTSYADSVKGRFTISQDNAKNTLYLQMNSLEPEDTAMYYCAATAGWYAARHALSPLFFGYWGQGTQVTVSS | 53.1 |
| CTLA4 heavy chain single domain antibody No. 165 (VHH, Camel VHH expressed in E. coli (PET32b), nickel-purified) VHH: QVQLQESGGGSVQTGGSLRLSCVVSGHSYSRKCMGWFRQAPGKEREEVATFYTGDGRTYYADSVKGRFTISQDNAKNTLYLQMNSLKPEDTGMYFCAADRRVNCDLLQSTFYNYRGQGTQVTVSS | 43.4 |
| CTLA4 heavy chain single domain antibody No. J17 (VHH, Camel VHH expressed in E. coli (PET32b), nickel-purified) VHH: QVQLQESGGGSVQAGGSLRLSCAASGFTLSSYTMTWLRQAPGKGLEWVSTINSGGSTSYADSVKGRFAISRDNAKNILYLQLNSLEIEDTGMYYCQGGLTQRGQGTQVTVSS | 50 |
| CTLA4 heavy chain single domain antibody No. C27 (VHH, Camel VHH expressed in E. coli (PET32b), nickel-purified) VHH: QVQLQESGGGSVQAGGSLRLSCAASGYIYSAYCMGWFRQAPGKERVGVAAISIGGGSTYYADSVKGRFTISQDNAKNTLYLQMNSLKPEDTAMYYCAADVIPTETCLGGSWSGPFGYWGQGTQVTVSS | 46.8 |
| CTLA4 heavy chain single domain antibody No. C2 (VHH, Camel VHH expressed in E. coli (PET32b), nickel-purified) VHH: QVQLQESGGGSVQPGGSLRLSCAVSGFTFSGYCMAWVRQAPGKGLEWVASIHRRDGSTDYADSVKGRFTISKDNSKNTLYLQMSSLKPEDTAVYYCAADPARLSCSGRVNSEYKYRGQGTQVTVSS | 44 |
| CTLA4 heavy chain single domain antibody No. 116 (VHH, Camel VHH expressed in E. coli (PET32b), nickel-purified) VHH: QVQLQESGGGLVQPGGSLRLSCEASGFTFSSYTMTWLRQAPGKGLEWVSTINSGGSTSYADSVKGRFAISRDNAKNTLYLQLNSLEIEDTGMYYCQGGLTRGQGTQVTVSS | 8.4 |
| CTLA4 heavy chain single domain antibody No. C22 (VHH, Camel VHH expressed in E. coli (PET32b), nickel-purified) VHH: QVQLQESGGGSVQAGGSLRLSCTVSQHTSRYYYMAWFRQAPGKEREGVASIWTGGGTPGYADSAKGRFTISTDNAKNTIYLQMNSLKPEDTAMYYCAADDRGGRWSLGTMAVGGYKYWGQGTQVTVSS | 30.3 |
| CTLA4 heavy chain single domain antibody No. C38 (VHH, Camel VHH expressed in E. coli (PET32b), nickel-purified) VHH: QVQLQESGGGSVQAGGSLRLSCAASRYTASSNCMAWFRQAPGKEREGVATIYNGGGSTAYADSVKGRFTISQDNAKNTVYLQMNSLKPEDTAMYYCGAGSPRFCASATMTGGHHLFGYWGQGTQVTVSS | 36.5 |
| CTLA4 heavy chain single domain antibody No. J42 (VHH, Camel VHH expressed in E. coli (PET32b), nickel-purified) VHH: QVQLQESGGGSVQAGGSLRLSCAASGYTYSSYNSNCMGWFRQAPGKEREGVAAIDSDGSTSYADSVKGRFTISKDNAKNTLYLQMNSLKPEDTAMYYCAASPRTCEVFSLGGSWHLFGYWGQGTQVTVSS | 38.8 |
| CTLA4 heavy chain single domain antibody No. J69 (VHH, Camel VHH expressed in E. coli (PET32b), nickel-purified) VHH: QVQLQESGGGLVQPGGSLRLSCAASGFTLSSYSMTWLRQAPGKGLEWVSTINSGGSTSYADSVKGRFAISRDNAKNTLYLQLNSLEIEDTGMYYCQGGLTRGQGTQVTVSS | 22.7 |
| CTLA4 heavy chain single domain antibody No. C1 (VHH, Camel VHH expressed in E. coli (PET32b), nickel-purified, detected by anti-His tag antibody) VHH: QVQLQESGGGSVQAGGSLGLSCAASGYIYSAYCMGWFRQAPGKEREGVAAIYLGGGSTYYADSVKGRFTISQDIAKNTLYLQMNSLKPEDTAMYSCAADVIPTETCLGGSWSGPFGYWGQGTQVTVSS | 42.9 |
| CTLA4 heavy chain single domain antibody No. J5 (VHH, Camel VHH expressed in E. coli (PET32b), nickel-purified) VHH: QVQLQESGGGSVQAGGSLRLSCAASGYTYSTYCMAWFRQVPEKERERVASIYTGGGTTYYADSVKGRFTISLDNAKNTLYLQMNSLKPEDTAMYYCAKSAARCDSSRDVNRLGYWGQGTQVTVSS | 43.2 |
| CTLA4 heavy chain single domain antibody No. J78 (VHH, Camel VHH expressed in E. coli (PET32b), nickel-purified) VHH: QVQLQESGGGSVQAGGSLRLSCTVSQHTSRYYYMAWFRQAPGKEREGVASIWTGGGTPGYADSAKGRFTISADNAKNTIYLQMNSLKPEDTAMYYCAADDRGGRWSLGTMAVGGYKYWGQGTQVTVSS | 22.6 |
